Test: Inhibition of alpha-chymotrypsin (unknown origin) using N-succinyl-L-phenylalanine-p-nitroanilide substrate
Set-up: species or system Homo sapiens
compounds and their reported pIC50
Please keep in mind that pIC50 is minus log10 of the molar concentration; only the number is needed.

# Compound, Measurement Name, Test Result
rows = [
    ("Cc1c(C(/C=C/N(C)C)=C(C#N)C#N)sc2sc(C(/C=C/N(C)C)=C(C#N)C#N)c(-c3ccccc3)c12", "pIC50", 3.69),
]

[Q] Give the measured pIC50 for CC(C)C[C@H](NC(=O)[C@@H](NC(=O)N[C@@H](Cc1ccccc1)C(=O)O)C1CCNC(=N)N1)C(=O)N[C@H](C=O)Cc1ccccc1 (some centres not stated)
[A] 5.24

* * *

Attribute: pIC50
Assay: Inhibition of buttermilk xanthine oxidase (unknown origin) incubated for 10 mins by spectrophotometry
# reply with the number alone; pIC50 is -log10 of concentration in mol/L

[Q] Supply measured pIC50 of `Cc1c(/C(=C/C=C(\C#N)C(N)=O)N(C)C)sc2sc(/C(=C/C=C(\C#N)C(N)=O)N(C)C)c(-c3ccccc3)c12` in your reply.
[A] 4.37

[Q] State its pIC50: `CCOc1nc(-c2sc3sc(-c4ccc(C#N)c(OCC)n4)c(-c4ccccc4)c3c2C)ccc1C#N`
[A] 4.84

[Q] Tell me its pIC50 given `Oc1ncnc2[nH]ncc12` as the entry.
[A] 5.70

[Q] Annotate the molecule `Cc1c(C(=O)c2cc(C(=O)O)c(=O)[nH]n2)sc2sc(C(=O)c3cc(C(=O)O)c(=O)[nH]n3)c(-c3ccccc3)c12` with its measured pIC50.
[A] 3.92
